System: immortalized murine embryonic fibroblasts (Mef)
measurementNotes: Pooled negative selection RNAi screening (deep sequencing)
Format: cell-based
conditionDetails: deep sequencing reads, on dox compared to initial representation
Source text: In addition to the analysis of single shRNAs for inhibitory effects in vitro and in vivo, the combination of tet-on competent cancer models and tet-regulatable shRNA expression vectors allowing for monitoring shRNA expression through fluorescent and other reporter genes (e.g. TRMPV and derivates) facilitates pooled shRNA negative selection screening (FIG. 37). […]
Kindly state Fold depletion in Mef for each of the entries shown.
Numbers only, in Fold.

List the reported Fold depletion in Mef of each molecule below.
1. Pde1b.2027: shRNA, SEQ ID NO: 162 (nucleic acid) TGCTGTTGACAGTGAGCGCTGCCTCCAAGTTTCTAAGCAATAGTGAAGCCACAGATGTATTGCTTAGAAACTTGGAGGCAATGCCTACTGCCTCGGA
2. Mn1.2545: neutral control shRNA, SEQ ID NO: 206 (nucleic acid) TGCTGTTGACAGTGAGCGCCAGCGCGGTTGCAGCCGGTAATAGTGAAGCCACAGATGTATTACCGGCTGCAACCGCGCTGTTGCCTACTGCCTCGGA
3. Slc15a3.1086: shRNA, SEQ ID NO: 180 (nucleic acid) TGCTGTTGACAGTGAGCGCCTGGTTCTATTGGAGCATCAATAGTGAAGCCACAGATGTATTGATGCTCCAATAGAACCAGTTGCCTACTGCCTCGGA
4. Gdi1.1120: shRNA, SEQ ID NO: 129 (nucleic acid) TGCTGTTGACAGTGAGCGCCAACAGGAAGTCAGACATCTATAGTGAAGCCACAGATGTATAGATGTCTGACTTCCTGTTGATGCCTACTGCCTCGGA
5. Slc22a4.2223: shRNA, SEQ ID NO: 181 (nucleic acid) TGCTGTTGACAGTGAGCGCAAACGTATAAATGCTATCCAATAGTGAAGCCACAGATGTATTGGATAGCATTTATACGTTTATGCCTACTGCCTCGGA

1: 1.31; 2: 0.29; 3: 2.32; 4: 1.98; 5: 3.41
